Listed molecules paired with reported pKi
biological target: Vasopressin V1a receptor (Rattus norvegicus); assay: Inhibition constant for V1a receptor of rat liver membrane
Sequence (P30560 whole entry): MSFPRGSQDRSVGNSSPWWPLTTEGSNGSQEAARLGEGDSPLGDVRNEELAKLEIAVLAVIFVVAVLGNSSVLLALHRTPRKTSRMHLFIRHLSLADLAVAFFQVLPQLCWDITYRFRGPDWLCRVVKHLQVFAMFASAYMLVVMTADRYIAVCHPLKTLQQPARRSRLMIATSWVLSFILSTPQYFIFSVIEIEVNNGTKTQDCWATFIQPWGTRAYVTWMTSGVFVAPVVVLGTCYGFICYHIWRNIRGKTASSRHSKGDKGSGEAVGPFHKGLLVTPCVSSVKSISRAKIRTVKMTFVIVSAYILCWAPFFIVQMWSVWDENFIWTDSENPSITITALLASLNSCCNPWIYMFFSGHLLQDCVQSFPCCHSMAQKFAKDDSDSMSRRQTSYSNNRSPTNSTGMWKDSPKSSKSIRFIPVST
// pKi here means minus log10 of the molar concentration (mol/L)

Some solved cases for reference:
Molecule: COc1ccc(C[C@@H](NC(=O)c2cccc(N=[N+]=[N-])c2)C(=O)N[C@@H](Cc2ccccc2)C(=O)N[C@@H](CCC(N)=O)C(=O)N[C@@H](CC(N)=O)C(=O)N[C@@H](CCCN=C(N)N)C(=O)N2CCC[C@H]2C(=O)N[C@@H](CCCN=C(N)N)C(=O)N[C@@H](Cc2ccc(O)cc2)C(N)=O)cc1
Experimental value: 7.75
--
Molecule: COc1ccc(C[C@@H](NC(=O)c2ccc(N=[N+]=[N-])cc2)C(=O)N[C@@H](Cc2ccccc2)C(=O)N[C@@H](CCC(N)=O)C(=O)N[C@@H](CC(N)=O)C(=O)N[C@@H](CCCNC(=N)N)C(=O)N2CCC[C@H]2C(=O)N[C@@H](CCCNC(=N)N)C(=O)N[C@@H](Cc2ccc(O)cc2)C(N)=O)cc1
Experimental value: 7.70

Problem: Which pKi reading was recorded for the molecule COc1ccc(C[C@@H](NC(=O)Cc2ccc(N=[N+]=[N-])cc2)C(=O)N[C@@H](Cc2ccccc2)C(=O)N[C@@H](CCC(N)=O)C(=O)N[C@@H](CC(N)=O)C(=O)N[C@@H](CCCNC(=N)N)C(=O)N2CCC[C@H]2C(=O)N[C@@H](CCCNC(=N)N)C(=O)N[C@@H](Cc2ccc(O)cc2)C(N)=O)cc1 (stereo in doubt; 13) ?
Solution: 9.92
